Each entry below lists one item and its recorded EC90 value.
tested on: human cell lines; assay: MTT assay (EC50/CC50 and MNTD90); format: cell-based; conditions: Maximum Non-Toxic Dose, read-out: MNTD/EC90
Report the figure along with its unit, number first.

Guide cases for EC90, answers given:
Test system human cell lines; read-out EC90; what value for COc1cccc(-c2nc3sccn3c2-c2ccnc(NCCNC(=O)Nc3cc(C(F)(F)F)cc(C(F)(F)F)c3)n2)c1 ?
16.4 µM

What do you have for O=C(NCCNc1nccc(-c2c(-c3cccc(O)c3)nc3sccn23)n1)c1cccc(C(F)(F)F)c1 ?
80.9 µM

Same question, COc1cccc(-c2nc3sccn3c2-c2ccnc(NCCNC(=O)c3cc(C(F)(F)F)cc(C(F)(F)F)c3)n2)c1 this time
33.9 µM

***
# query: EC90 | item O=C(NCCNc1nccc(-c2c(-c3cccc(O)c3)nc3sccn23)n1)c1ccc(N2CCOCC2)c(C(F)(F)F)c1 | system: human cell lines
24.1 µM
